# Organism: Cavia porcellus
# TEST_DETAILS: Inhibitory concentration required to suppress the rate of contraction of guinea pig right atria
# Assay type: functional
# PROTOCOL_CONDITIONS: read-out: IC50
pIC50: −log10 of the molar value.
QUANTITY: pIC50

Take a look at these entries with their results.
MOLECULE	pIC50
COc1ccc(OCCCN(C)CCOc2ccc3c(c2)OCO3)c(C2Sc3ccccc3N(C)C2=O)c1 (stereo in doubt; 15)	6.23
COc1ccc(OCCCN(C)CCOc2cc(OC)c(OC)c(OC)c2)c(C2Sc3ccccc3N(C)C2=O)c1 (stereo not drawn)	6.30

[a] COc1ccc(OCCCCN(C)CCOc2ccc(OC)c(OC)c2)c(C2Sc3ccccc3N(C)C2=O)c1 (stereo not drawn)
[b] COc1ccc(OCCCN(C)CCOc2ccc3c(c2)OCO3)c([C@H]2Sc3ccccc3N(C)C2=O)c1 [SEMOTIADIL]
Incoming: Lower pIC50: a or b ? Answer by stating the label of the chosen item.
Outgoing: a
(a: 6.22, b: 6.74)

[I] COc1ccc(OCCCN(C)CCc2cc(OC)c(OC)c(OC)c2)c(C2Sc3ccccc3N(C)C2=O)c1 (stereo not drawn)
[II] COc1ccc(OCCCCN(C)CCOc2ccc3c(c2)OCO3)c(C2Sc3ccccc3N(C)C2=O)c1 (stereo not drawn)
Incoming: Two entries are listed, I and II . Which one carries the higher pIC50? Answer by stating the label of the chosen item.
Outgoing: II
(II: 6.72, I: 6.40)

[1] COc1ccc([C@@H]2Sc3ccccc3N(CCN(C)C)C(=O)[C@@H]2OC(C)=O)cc1 [DILTIAZEM]
[2] COc1ccc(OCCCCN(C)CCOc2cc(OC)c(OC)c(OC)c2)c(C2Sc3ccccc3N(C)C2=O)c1 (stereo not drawn)
Incoming: Lower pIC50: 1 or 2 ? Answer by stating the label of the chosen item.
Outgoing: 1
(1: 6.22, 2: 6.72)

----------
# Organism: Cavia porcellus
# TEST_DETAILS: Inhibitory concentration required to suppress the contractile force of guinea pig right atria
# Format: functional
pIC50: −log10 of the molar value.
QUANTITY: pIC50

COMPOUND	pIC50
COc1ccc(OCCCCN(C)CCOc2ccc3c(c2)OCO3)c(C2Sc3ccccc3N(C)C2=O)c1 (centres undefined)	7.03
COc1ccc(OCCCN(C)CCOc2ccc3c(c2)OCO3)c([C@H]2Sc3ccccc3N(C)C2=O)c1 [SEMOTIADIL]	7.17
COc1ccc(OCCCCN(C)CCOc2ccc(OC)c(OC)c2)c(C2Sc3ccccc3N(C)C2=O)c1 (centres undefined)	6.36
COc1ccc(OCCCCN(C)CCOc2cc(OC)c(OC)c(OC)c2)c(C2Sc3ccccc3N(C)C2=O)c1 (centres undefined)	6.70
COc1ccc(OCCCN(C)CCOc2cc(OC)c(OC)c(OC)c2)c(C2Sc3ccccc3N(C)C2=O)c1 (centres undefined)	6.43

[a] COc1ccc(OCCCN(C)CCOc2ccc3c(c2)OCO3)c(C2Sc3ccccc3N(C)C2=O)c1 (stereo in doubt; 15)
[b] COc1ccc([C@@H]2Sc3ccccc3N(CCN(C)C)C(=O)[C@@H]2OC(C)=O)cc1 [DILTIAZEM]
[c] COc1ccc(OCCCN(C)CCc2cc(OC)c(OC)c(OC)c2)c(C2Sc3ccccc3N(C)C2=O)c1 (centres undefined)
[d] COc1ccc(CCN(C)CCCC(C#N)(c2ccc(OC)c(OC)c2)C(C)C)cc1OC (centres undefined) [VERAPAMIL]
Incoming: Order the 4 compounds from highest to lowest pIC50. Order the labels as requested and give them as your answer.
Outgoing: d, b, a, c
